Test system: SW620
Experiment: CCK-8 tumor cell proliferation, SW620
Format: cell-based, Human
Settings: Homo sapiens, SW-620; Table 18, FAK inhibitor based; SW620; read-out: IC50 inhibiting proliferation of tumor cells, SW620
pIC50: −log10 of the molar value.
Exercise: for every item that follows, state its recorded pIC50.

Here is how some compounds turned out for pIC50.
- CNC(=O)c1ccccc1Nc1cc(Nc2ccc(N3CCC(N(C)Cc4ccc5c(c4F)CN(C4CCC(=O)NC4=O)C5=O)CC3)cc2OC)ncc1C(F)(F)F (stereo not drawn): 6.30 to 7.00
- CNC(=O)c1ccccc1Nc1cc(Nc2cc(C)c(N3CCN(Cc4ccc5c(c4F)CN(C4CCC(=O)NC4=O)C5=O)CC3)cc2OC(C)C)ncc1C(F)(F)F (stereo not drawn): > 7.30

Now take the following compound into account.
Incoming: Please indicate pIC50 recorded for CNC(=O)c1ccccc1Nc1cc(Nc2ccc(N3CCC(N(C)Cc4ccc5c(c4)C(=O)N(C4CCC(=O)NC4=O)C5=O)CC3)cc2OC)ncc1C(F)(F)F (stereo not drawn)
Outgoing: 5.30 to 6.00

----------
System: CCRF-CEM
Assay: CCK-8 tumor cell proliferation, CCRF-CEM
Format: cell-based, Human
Details: Homo sapiens; Table 18, FAK inhibitor based; CCRF-CEM; read-out: IC50 inhibiting proliferation of tumor cells, CCRF-CEM
Result Type: IC50

Here is how some compounds turned out for IC50.
- CNC(=O)c1ccccc1Nc1cc(Nc2cc(C)c(C3CCN(Cc4ccc5c(c4)C(=O)N(C4CCC(=O)NC4=O)C5=O)CC3)cc2OC(C)C)ncc1C(F)(F)F (stereo not drawn): 100 to 500 nM
- CNC(=O)c1ccccc1Nc1cc(Nc2cc(C)c(C3CCN(Cc4ccc5c(c4)CN(C4CCC(=O)NC4=O)C5=O)CC3)cc2OC(C)C)ncc1C(F)(F)F (stereo not drawn): < 50 nM
- CNC(=O)c1ccccc1Nc1cc(Nc2ccc(N3CCC(N(C)Cc4ccc5c(c4)CN(C4CCC(=O)NC4=O)C5=O)CC3)cc2OC)ncc1C(F)(F)F (stereo not drawn): 500 to 1000 nM
- CNC(=O)c1ccccc1Nc1cc(Nc2ccc(N3CCN(Cc4cc5c(cc4F)C(=O)N(C4CCC(=O)NC4=O)C5)CC3)cc2OC)ncc1C(F)(F)F (stereo not drawn): < 50 nM
- CN(Cc1ccc2c(c1)CN(C1CCC(=O)NC1=O)C2=O)C1CCN(c2ccc(Nc3ncc(C(F)(F)F)c(NCc4nccnc4N(C)S(C)(=O)=O)n3)cc2)CC1 (stereo not drawn): 50 to 100 nM

Incoming: # return IC50 of CS(=O)(=O)c1cccc(CNc2nc(Nc3ccc(N4CCN(Cc5cc6c(cc5F)C(=O)N(C5CCC(=O)NC5=O)C6)CC4)cc3)ncc2C(F)(F)F)c1 (stereo not drawn) (system: CCRF-CEM)
Outgoing: < 50 nM

----------
Tested on: SU-DHL-4
Test: CCK-8 tumor cell proliferation, SU-DHL-4
Format: cell-based, Human
Settings: Homo sapiens, Table 19, IRAK4 inhibitor based, read-out: IC50 inhibiting proliferation of tumor cells, SU-DHL-4
Result Type: IC50

Here is how some compounds turned out for IC50.
• O=C1CCC(N2Cc3cc(CN4CCC(n5cc(NC(=O)c6coc(-c7ccnc(NCC8CC8)c7)n6)c(C(F)F)n5)CC4)ccc3C2=O)C(=O)N1 (stereo not drawn) = < 50 nM
• O=C1CCC(N2Cc3c(ccc(CN4CCC(n5cc(NC(=O)c6coc(-c7ccnc(NCC8CC8)c7)n6)c(C(F)F)n5)CC4)c3F)C2=O)C(=O)N1 (stereo not drawn) = < 50 nM
• O=C1CCC(N2Cc3cc(CN4CCC(n5cc(NC(=O)c6cnn7ccc(N8CCOCC8)nc67)c(C(F)F)n5)CC4)ccc3C2=O)C(=O)N1 (stereo not drawn) = 500 to 1000 nM
• O=C1CCC(N2Cc3c(ccc(CN4CCC(n5cc(NC(=O)c6coc(-c7ccnc(NCC(F)(F)F)c7)n6)c(C(F)F)n5)CC4)c3F)C2=O)C(=O)N1 (stereo not drawn) = < 50 nM
• O=C1CCC(N2Cc3cc(CN4CCC(n5cc(NC(=O)c6coc(-c7ccnc(NCC8CC8)c7)n6)c(C(F)F)n5)CC4)c(F)cc3C2=O)C(=O)N1 (stereo not drawn) = < 50 nM

Consider the following items and state reported IC50 for each.
1. O=C1CCC(N2C(=O)c3ccc(CN4CCC(n5cc(NC(=O)c6cnn7ccc(N8CCOCC8)nc67)c(C(F)F)n5)CC4)cc3C2=O)C(=O)N1 (stereo not drawn)
2. O=C1CCC(N2Cc3cc(CN4CCC(n5cc(NC(=O)c6cnn7ccc(N8CCOCC8)nc67)c(C(F)F)n5)CC4)c(F)cc3C2=O)C(=O)N1 (stereo not drawn)
3. O=C1CCC(N2Cc3cc(CN4CCC(n5cc(NC(=O)c6cnn7ccc(N8CCOCC8)nc67)c(C(F)F)n5)CC4)cc(F)c3C2=O)C(=O)N1 (stereo not drawn)
4. O=C1CCC(N2Cc3cc(CN4CCC(n5cc(NC(=O)c6coc(-c7ccnc(NCC(F)(F)F)c7)n6)c(C(F)F)n5)CC4)ccc3C2=O)C(=O)N1 (stereo not drawn)
5. O=C1CCC(N2Cc3cc(CN4CCC(n5cc(NC(=O)c6coc(-c7ccnc(NCC(F)(F)F)c7)n6)c(C(F)F)n5)CC4)cc(F)c3C2=O)C(=O)N1 (stereo not drawn)
6. O=C1CCC(N2Cc3cc(CN4CCC(n5cc(NC(=O)c6coc(-c7ccnc(NCC8CC8)c7)n6)c(C(F)F)n5)CC4)cc(F)c3C2=O)C(=O)N1 (stereo not drawn)
7. O=C1CCC(N2Cc3c(ccc(CN4CCC(n5cc(NC(=O)c6cnn7ccc(N8CCOCC8)nc67)c(C(F)F)n5)CC4)c3F)C2=O)C(=O)N1 (stereo not drawn)

Outgoing:
1: 5000 to 10000 nM; 2: 100 to 500 nM; 3: 1000 to 5000 nM; 4: < 50 nM; 5: 100 to 500 nM; 6: 100 to 500 nM; 7: 100 to 500 nM
